Target: Receptor-type tyrosine-protein phosphatase C (Homo sapiens); also: in other assays of this panel Not Active means under 50% inhibition at 10 µM;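 also: inhibition of CD45 enzyme activity measured using DiFMUP as substrate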
Sequence (P08575 whole entry): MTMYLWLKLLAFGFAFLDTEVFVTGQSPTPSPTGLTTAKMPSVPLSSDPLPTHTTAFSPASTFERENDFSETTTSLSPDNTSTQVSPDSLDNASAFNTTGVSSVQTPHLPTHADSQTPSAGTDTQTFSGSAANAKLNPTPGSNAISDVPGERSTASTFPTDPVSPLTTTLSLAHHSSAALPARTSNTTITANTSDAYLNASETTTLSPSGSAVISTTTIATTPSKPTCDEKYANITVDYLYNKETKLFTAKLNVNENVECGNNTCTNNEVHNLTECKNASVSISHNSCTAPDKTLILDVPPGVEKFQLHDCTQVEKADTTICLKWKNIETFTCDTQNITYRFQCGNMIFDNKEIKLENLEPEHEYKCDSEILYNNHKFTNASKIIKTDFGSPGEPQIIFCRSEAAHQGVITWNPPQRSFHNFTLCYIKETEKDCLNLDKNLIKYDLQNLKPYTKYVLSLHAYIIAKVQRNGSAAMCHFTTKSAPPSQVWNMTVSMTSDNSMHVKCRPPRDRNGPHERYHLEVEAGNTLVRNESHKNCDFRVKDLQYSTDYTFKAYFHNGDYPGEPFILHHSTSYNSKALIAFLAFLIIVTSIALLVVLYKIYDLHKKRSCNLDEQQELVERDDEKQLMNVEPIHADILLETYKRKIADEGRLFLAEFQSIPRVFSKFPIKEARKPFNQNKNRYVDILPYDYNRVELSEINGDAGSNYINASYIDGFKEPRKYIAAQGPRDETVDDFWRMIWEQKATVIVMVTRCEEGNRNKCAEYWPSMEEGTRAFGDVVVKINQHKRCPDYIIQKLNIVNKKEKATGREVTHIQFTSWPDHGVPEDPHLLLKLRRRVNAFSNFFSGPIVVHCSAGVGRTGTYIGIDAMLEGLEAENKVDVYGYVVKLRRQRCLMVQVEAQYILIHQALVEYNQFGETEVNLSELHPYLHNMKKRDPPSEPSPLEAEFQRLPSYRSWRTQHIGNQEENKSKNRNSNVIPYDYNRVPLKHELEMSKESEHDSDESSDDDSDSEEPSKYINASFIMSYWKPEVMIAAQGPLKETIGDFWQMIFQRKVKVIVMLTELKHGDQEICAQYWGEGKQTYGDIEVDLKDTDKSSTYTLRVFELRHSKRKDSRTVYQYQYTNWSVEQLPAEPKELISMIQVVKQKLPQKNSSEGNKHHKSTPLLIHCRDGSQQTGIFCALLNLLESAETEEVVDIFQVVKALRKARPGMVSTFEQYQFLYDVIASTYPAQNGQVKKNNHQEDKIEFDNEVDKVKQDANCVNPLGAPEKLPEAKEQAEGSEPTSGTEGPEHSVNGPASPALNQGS
Design: species or system Escherichia coli
Quantity Kind: Ki

{"Substance": "LEAD (II) ACETATE", "Quantity Kind": "Ki", "Experimental Value": "Not Active"}
{"Substance": "SODIUM NITROPRUSSIDE", "Quantity Kind": "Ki", "Experimental Value": "Not Active"}
{"Substance": "CADMIUM ACETATE", "Quantity Kind": "Ki", "Experimental Value": "Not Active"}
{"Substance": "LIPOPOLYSACCHARIDE E. COLI O55:B5", "Quantity Kind": "Ki", "Experimental Value": "Not Active"}

###

Target: Vascular endothelial growth factor receptor 1 (Homo sapiens, UniProt P17948); also: in other assays of this panel Not Active means under 50% inhibition at 10 µM
Sequence (P17948 whole entry): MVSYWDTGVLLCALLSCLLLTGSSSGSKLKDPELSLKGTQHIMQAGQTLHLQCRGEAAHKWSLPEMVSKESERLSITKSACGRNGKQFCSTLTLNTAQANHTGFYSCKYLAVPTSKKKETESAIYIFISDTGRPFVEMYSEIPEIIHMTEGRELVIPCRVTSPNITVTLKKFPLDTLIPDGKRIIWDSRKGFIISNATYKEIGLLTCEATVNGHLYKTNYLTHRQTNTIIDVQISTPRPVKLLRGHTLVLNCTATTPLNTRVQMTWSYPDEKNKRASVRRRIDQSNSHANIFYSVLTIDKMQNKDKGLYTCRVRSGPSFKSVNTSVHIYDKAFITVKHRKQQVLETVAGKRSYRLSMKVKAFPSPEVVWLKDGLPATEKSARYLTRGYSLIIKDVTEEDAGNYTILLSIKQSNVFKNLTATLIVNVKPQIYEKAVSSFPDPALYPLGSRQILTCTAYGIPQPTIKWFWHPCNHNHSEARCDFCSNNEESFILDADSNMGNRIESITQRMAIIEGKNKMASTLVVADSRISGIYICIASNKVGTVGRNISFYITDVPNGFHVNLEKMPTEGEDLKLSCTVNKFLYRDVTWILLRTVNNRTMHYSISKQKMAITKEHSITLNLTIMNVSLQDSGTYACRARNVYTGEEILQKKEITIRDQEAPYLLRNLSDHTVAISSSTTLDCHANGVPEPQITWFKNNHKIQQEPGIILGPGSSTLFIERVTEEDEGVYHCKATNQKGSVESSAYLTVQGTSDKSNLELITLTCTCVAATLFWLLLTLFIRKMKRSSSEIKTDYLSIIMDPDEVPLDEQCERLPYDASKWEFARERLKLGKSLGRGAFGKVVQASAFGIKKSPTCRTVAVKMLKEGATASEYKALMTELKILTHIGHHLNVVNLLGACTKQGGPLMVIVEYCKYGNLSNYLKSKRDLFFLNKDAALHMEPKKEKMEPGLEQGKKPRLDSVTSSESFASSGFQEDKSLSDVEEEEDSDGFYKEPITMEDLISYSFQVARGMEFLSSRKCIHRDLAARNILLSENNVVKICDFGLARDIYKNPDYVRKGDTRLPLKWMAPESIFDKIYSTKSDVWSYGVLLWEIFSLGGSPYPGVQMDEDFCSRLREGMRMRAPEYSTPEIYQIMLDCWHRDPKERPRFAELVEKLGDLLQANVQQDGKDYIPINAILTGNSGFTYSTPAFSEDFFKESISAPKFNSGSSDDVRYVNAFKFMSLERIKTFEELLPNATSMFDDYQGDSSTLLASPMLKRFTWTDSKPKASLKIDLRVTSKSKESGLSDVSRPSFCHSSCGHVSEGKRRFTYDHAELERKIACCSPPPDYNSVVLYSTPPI
Format: cell-based
Details: huvec
*1 amine or outer side, *2 acyl side, *3 side chain or, on linkers, in order; H or OH if unused. Where a SMILES comes first, the peptide text is derived from it. Bridges are numbered along the chain shown (N, C = ends). Roman numbers before positions name the chains, in order. [ ]: non-standard residue; d: D form. Actinocin(1to9) = Cc1c2oc3c(C)ccc(C(=O)[*:2])c3nc-2c(C(=O)[*:1])c(N)c1=O; NMeV = CN[C@H](C(=O)O)C(C)C; Sar = CNCC(=O)O
Quantity Kind: IC50

{"Compound": "Cc1c(C)c2c(c(C)c1O)CCC(C)(COc1ccc(CC3SC(=O)NC3=O)cc1)O2 (stereo not given)", "IC50": "Not Active"}
{"Compound": "CCn1cc(C(=O)O)c(=O)c2cc(F)c(N3CCNCC3)cc21", "IC50": "Not Active"}
{"Compound": "Nc1nc2nc[nH]c2c(=S)[nH]1", "IC50": "Not Active"}
{"Compound": "Cc1c2oc3c(C)ccc(C(=O)N[C@@H]4C(=O)N[C@H](C(C)C)C(=O)N5CCC[C@H]5C(=O)N(C)CC(=O)N(C)[C@@H](C(C)C)C(=O)O[C@@H]4C)c3nc-2c(C(=O)N[C@@H]2C(=O)N[C@H](C(C)C)C(=O)N3CCC[C@H]3C(=O)N(C)CC(=O)N(C)[C@@H](C(C)C)C(=O)O[C@@H]2C)c(N)c1=O [DACTINOMYCIN] (I: T[dV]P[Sar][NMeV] / II: T[dV]P[Sar][NMeV]; ester I:1-I:C, II:1-II:C; linker I:N-II:N via Actinocin(1to9))", "IC50": "Not Active"}
{"Compound": "Cc1ccc2cc3c(ccc4ccccc43)c3c2c1CC3", "IC50": "Not Active"}

// next item, IC50 requested
Which IC50 is reported for this compound? O=NN(CCCl)C(=O)NC1CCCCC1
Not Active

###

Molecular target: Sigma non-opioid intracellular receptor 1 (Homo sapiens)
Sequence (Q99720 whole entry): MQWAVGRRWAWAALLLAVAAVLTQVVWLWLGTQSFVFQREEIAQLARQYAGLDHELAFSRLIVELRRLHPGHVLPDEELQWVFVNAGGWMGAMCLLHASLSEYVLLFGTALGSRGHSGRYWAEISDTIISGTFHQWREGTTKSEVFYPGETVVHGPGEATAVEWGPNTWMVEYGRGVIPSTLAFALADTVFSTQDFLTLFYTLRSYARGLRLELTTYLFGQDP
Experiment: DRUGMATRIX: Sigma1 radioligand binding (ligand: [3H] Haloperidol)
Type: cell membranes, Jurkat, Membrane
Details: jurkat; Not Active = under 50% inhibition at 10 µM

{"Molecule": "C=C(C)C1(O)OC(=O)C=C1OC (stereo not drawn) [PENICILLIC ACID]", "IC50": "Not Active"}
{"Molecule": "Cc1noc(NS(=O)(=O)c2ccc(N)cc2)c1C [SULFISOXAZOLE]", "IC50": "Not Active"}
{"Molecule": "C[C@H]1O[C@@H](O[C@H]2[C@@H](O)C[C@H](O[C@H]3[C@@H](O)C[C@H](O[C@H]4CC[C@@]5(C)[C@H](CC[C@@H]6[C@@H]5C[C@@H](O)[C@]5(C)[C@@H](C7=CC(=O)OC7)CC[C@]65O)C4)O[C@@H]3C)O[C@@H]2C)C[C@H](O)[C@@H]1O [DIGOXIN]", "IC50": "Not Active"}

###

Molecular target: Carbonic anhydrase 2 (Homo sapiens)
Assay: DRUGMATRIX: Carbonic Anhydrase II enzyme inhibition (substrate: 4-Nitrophenyl acetate (4-NPA))
Type: tissue-based, Erythrocyte
Conditions: Not Active = under 50% inhibition at 10 µM; read-out: IC50
Quantity Kind: pIC50
Conceptually, pIC50 converts a concentration in mol/L into minus its log10.

Param item = Cc1c(C)c2c(c(C)c1O)CCC(C)(COc1ccc(CC3SC(=O)NC3=O)cc1)O2 (stereo unspecified) [TROGLITAZONE] ; retrieve measured pIC50.
6.01

###

Target: Calcitonin receptor (Homo sapiens, UniProt P30988); also: in other assays of this panel Not Active means under 50% inhibition at 10 µM
Sequence (P30988 whole entry): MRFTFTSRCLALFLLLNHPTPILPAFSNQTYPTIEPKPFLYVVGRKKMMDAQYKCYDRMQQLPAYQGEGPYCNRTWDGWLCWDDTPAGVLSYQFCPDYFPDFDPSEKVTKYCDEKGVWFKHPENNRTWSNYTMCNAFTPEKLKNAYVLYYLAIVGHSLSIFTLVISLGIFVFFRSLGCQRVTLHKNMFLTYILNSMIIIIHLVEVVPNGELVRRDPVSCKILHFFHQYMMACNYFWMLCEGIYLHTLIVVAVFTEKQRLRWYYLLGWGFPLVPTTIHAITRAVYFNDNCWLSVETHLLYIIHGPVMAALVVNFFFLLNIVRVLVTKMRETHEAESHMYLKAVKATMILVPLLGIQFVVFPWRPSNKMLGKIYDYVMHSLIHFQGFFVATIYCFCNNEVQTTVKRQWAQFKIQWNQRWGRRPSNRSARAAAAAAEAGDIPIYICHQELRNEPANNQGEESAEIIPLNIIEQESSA
Format: cell membranes, Membrane
Settings: t47d
Quantity Kind: IC50

{"Compound": "CC(C)N1CCN(c2ccc(OCC3COC(Cn4cncn4)(c4ccc(Cl)cc4Cl)O3)cc2)CC1 (stereo not drawn) [TERCONAZOLE]", "Experimental Value": "Not Active"}
{"Compound": "Cc1c(O)c(=O)ccn1C [DEFERIPRONE]", "Experimental Value": "Not Active"}
{"Compound": "C[C@H]1O[C@@H](O[C@H]2[C@@H](O)C[C@H](O[C@H]3[C@@H](O)C[C@H](O[C@H]4CC[C@@]5(C)[C@H](CC[C@@H]6[C@@H]5C[C@@H](O)[C@]5(C)[C@@H](C7=CC(=O)OC7)CC[C@]65O)C4)O[C@@H]3C)O[C@@H]2C)C[C@H](O)[C@@H]1O [DIGOXIN]", "Experimental Value": "Not Active"}

###

Molecular target: UniProt:P10635
Sequence (P10635 whole entry): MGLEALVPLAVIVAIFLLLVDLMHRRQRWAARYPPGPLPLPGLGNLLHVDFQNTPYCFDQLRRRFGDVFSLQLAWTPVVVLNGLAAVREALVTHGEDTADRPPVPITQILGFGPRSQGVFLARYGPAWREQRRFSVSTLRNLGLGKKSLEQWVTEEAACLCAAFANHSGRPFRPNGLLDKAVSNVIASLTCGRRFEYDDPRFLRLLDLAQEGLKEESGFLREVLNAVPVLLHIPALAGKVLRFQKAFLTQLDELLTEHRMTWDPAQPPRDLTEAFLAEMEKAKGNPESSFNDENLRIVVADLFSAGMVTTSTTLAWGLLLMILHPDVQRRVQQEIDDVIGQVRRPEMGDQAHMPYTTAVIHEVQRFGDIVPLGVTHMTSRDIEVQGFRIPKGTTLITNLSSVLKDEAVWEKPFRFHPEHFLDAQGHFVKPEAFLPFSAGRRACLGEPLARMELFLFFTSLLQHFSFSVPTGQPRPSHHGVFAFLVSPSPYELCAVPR
Conditions: bti-tn-5b1-4
Quantity Kind: IC50

{"Molecule": "CC(=O)O[C@@]12CO[C@@H]1C[C@H](O)[C@@]1(C)C(=O)[C@H](O)C3=C(C)[C@@H](OC(=O)[C@H](O)[C@@H](NC(=O)OC(C)(C)C)c4ccccc4)C[C@@](O)([C@@H](OC(=O)c4ccccc4)[C@H]21)C3(C)C.O.O.O", "Experimental Value": "Not Active"}
{"Molecule": "CCCC1O[C@@H]2C[C@H]3[C@@H]4CCC5=CC(=O)C=C[C@]5(C)[C@H]4[C@@H](O)C[C@]3(C)[C@]2(C(=O)CO)O1 (stereo partly drawn) [BUDESONIDE]", "Experimental Value": "Not Active"}
{"Molecule": "O=c1ncn2nc(Sc3ccc(F)cc3F)ccc2c1-c1c(Cl)cccc1Cl", "Experimental Value": "Not Active"}

###

Target: Substance-P receptor (Homo sapiens); also: in other assays of this panel Not Active means under 50% inhibition at 10 µM
Sequence (P25103 whole entry): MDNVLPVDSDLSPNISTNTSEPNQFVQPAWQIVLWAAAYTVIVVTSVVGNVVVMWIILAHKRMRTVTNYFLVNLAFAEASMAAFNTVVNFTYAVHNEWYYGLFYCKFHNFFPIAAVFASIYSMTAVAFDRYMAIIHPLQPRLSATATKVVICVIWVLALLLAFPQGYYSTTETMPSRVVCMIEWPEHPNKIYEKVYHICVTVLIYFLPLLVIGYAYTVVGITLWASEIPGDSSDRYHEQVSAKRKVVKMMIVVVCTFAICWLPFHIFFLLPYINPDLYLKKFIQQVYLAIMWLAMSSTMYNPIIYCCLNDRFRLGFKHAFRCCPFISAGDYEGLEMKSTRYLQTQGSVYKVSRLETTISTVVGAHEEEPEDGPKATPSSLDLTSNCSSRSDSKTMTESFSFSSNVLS
Assay type: cell membranes, CHO, Membrane
Conditions: cho
Quantity Kind: Ki

{"Substance": "SODIUM NITROPRUSSIDE", "Test Target": "Substance-P receptor (Homo sapiens)", "Experimental Value": "Not Active"}
{"Substance": "LEAD (II) ACETATE", "Test Target": "Substance-P receptor (Homo sapiens)", "Experimental Value": "Not Active"}
{"Substance": "LIPOPOLYSACCHARIDE E. COLI O55:B5", "Test Target": "Substance-P receptor (Homo sapiens)", "Experimental Value": "Not Active"}
{"Substance": "CADMIUM ACETATE", "Test Target": "Substance-P receptor (Homo sapiens)", "Experimental Value": "Not Active"}
